quantity-name: glass transition temperature (°C)
Reply numerically in °C, unit not repeated.

Recorded glass transition temperature, per entry:
compound	measurement-units	glass transition temperature
*C(=O)c1ccc2c(c1)C(=O)N(c1cccc(P(=O)(c3ccccc3)c3cccc(N4C(=O)c5ccc(*)cc5C4=O)c3)c1)C2=O (repeat unit)	°C	273.00
*c1cccc(Oc2cccc(N3C(=O)c4ccc(Oc5ccc6c(c5)C(=O)N(*)C6=O)cc4C3=O)c2)c1 (repeat unit)	°C	206.00
*O[Si](C)(C)O[Si](C)(C)O[Si](C)(C)O[Si](C)(C)OC1=C(*)c2cccc3cccc1c23 (repeat unit)	°C	-43.00

Moving on to another compound below.
Entry *CC(*)c1ccc(COc2ccc(-c3ccc(-c4ccc(C)s4)c4nsnc34)cc2)cc1 (repeat unit) : reported glass transition temperature = ?
130.00
